- TESTED SYSTEM: Calmodulin-1 (Homo sapiens)
- ASSAY METHOD TEXT: calcium-bound CALM1 binders on microarrays, profiling panel, artefact control for SMM control-protein annotation, biochemical, small-molecule microarray, Cy5-labelled CALM1, plus calcium (AID 1112);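 also: score merges spot fluorescence with signal to noise from triplicate slides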
- SETTINGS: Cy5-CALM1 binding fluorescence, higher = more signal
PROPERTY MEASURED: composite z-score
Just the number, please, no unit attached.

Known results for molecules:
MOLECULE	PROPERTY MEASURED	TEST RESULT
Cc1ccc(S(=O)(=O)N2[C@@H](c3ccccc3)C(C(=O)O)=CC[C@H]2c2ccc(F)cc2)cc1	composite z-score	-0.388
COc1c(C)cc(-c2nc(-c3ccccc3)c3c(c2C)CO[Si]3(C(C)C)C(C)C)cc1C	composite z-score	0.154
C=CCC(OC(C)=O)[C@@H]1[C@@H](N(Cc2ccc(-c3ccccc3)cc2)C(=O)Cc2ccc(OC)cc2)c2cc(OCCCO)ccc2N1C(=O)c1ccc2ccccc2c1 (stereo not given in full)	composite z-score	0.335
C[C@]1(C(=O)NCC(F)(F)F)c2ccccc2C(=O)N(Cc2cc(C(F)(F)F)cc(C(F)(F)F)c2)[C@H]1c1ccc(CO)cc1	composite z-score	0.331
CC(=O)NCCCC[C@@H]1NC(=O)[C@H]2C[C@@H](C(=O)O)[C@@H](c3cccc(OCCO)c3)N2C1=O	composite z-score	-0.767

Noted for "CC(C)C[C@@H]1NC(=O)[C@@H]2C[C@H](C(=O)NCCCCCCNC(=O)CS)[C@H](c3ccc(O)cc3)N2C1=O" : its composite z-score reads 0.152

Consider "COC(=O)[C@@]1(Cc2ccccc2)[C@H]2c3cc(C(=O)N(C)C)n(Cc4ccc(Cl)c(C(F)(F)F)c4)c3C[C@H]2CN1C(=O)c1ccccc1" . Its measured composite z-score is 1.06

// sample "C[C@@]1([C@@H](NS(=O)(=O)c2cccc3cccnc23)c2ccc(-c3ccccc3)cc2)C[C@H]1C1CCCCC1" , its composite z-score was 1.38

// sample COc1ccc(NN2C(C(O)c3ccc(F)cc3)C=CC3C(=O)N(C4CCCCC4)C(=O)C32)cc1 (stereo not given) , its composite z-score was 0.722

Field composite z-score (entry "COC(=O)[C@]1(Cc2ccccc2N=[N+]=[N-])N=C(c2ccc(OCCCO)cc2)O[C@@H]1c1ccccc1CN=[N+]=[N-]" ) reads -0.529

The measured composite z-score associated with "C=C(COC)C(=O)CC[C@H](OC(C)=O)c1ccc(CO)o1" reads -1.07

Entry COC(=O)[C@H](Cc1ccccc1)N1CC(C)(OC)O[C@@H](Cc2ccccc2)[C@H]1/C=C/C1CC1 (stereo not given in full) ; composite z-score = -0.233

C[C@H]1C2[C@H](Cc3ccccc3)NC(=O)[C@]23C(=O)N[C@@H](Cc2ccccc2)C(=O)N2CCC[C@H]2C(=O)NC/C=C/CC/C=C/C3[C@@H]2O[C@]12C (stereo not given in full) has a reported composite z-score of -0.945

Record CC1CC/C=C\[C@H]2OC34C=CCN(C(C)C)C(=O)[C@H]3N(C(C)CO)C(=O)[C@@H]4C2C(=O)O1 (stereo not given in full) , field composite z-score: -0.824

response.value for COc1ccc(NN2C(C(O)c3ccccc3)C=CC3C(=O)N(C4CCCCC4)C(=O)C32)cc1 (stereo not given) (field: composite z-score) = -0.15
